Biological target: LHRH receptor (LHRH binding sites) on EFO-27 human ovarian cancer cells (human)
Assay: competition with [125I-Tyr8]BRU-2477 for binding to EFO-27 cells
assay.readout: EC50 (nM)

XRWSHXWXP (as printed: Sar-R-W-S-H-Darg-W-Bpa4-P-Daprp13-DO3A10CM (C-terminal chelator)) [BRU-3076]; 750

[a] XXHWSHXWXPX (as printed: DO3A10CM-Ambz4-Sar-His-Trp-Ser-His-Darg-Trp-Bpa4-Pro-azaGly-NH2 (Ambz4 is the linker)) [BRU-2727]
[b] XRWSHXWXP (as printed: Dnal2-R-W-S-H-Darg-W-Bpa4-P-Da15o3pt-DO3A10CM (C-terminal chelator)) [BRU-2991]
[c] XRWSHXWXPX (as printed: DO3A10CM-Dnal2-Arg-Trp-Ser-His-Darg-Trp-Bpa4-Pro-azaGly-NH2) [BRU-2813]
Rank ascending by EC50. A complete answer lists every label in the requested sequence.
b, c, a
